Quick reference for MIC among some compounds
test system: Escherichia coli; test: Antibacterial activity against Escherichia coli ATCC 25922 after 16 to 22 hrs by broth dilution method; type: functional
Supply the numeric figure in µg/mL, leaving out any unit text.

Example entries and their recorded answers appear below.
[
  {
    "compound structure": "CC[C@H]1OC(=O)[C@H](C)[C@@H](O[C@H]2C[C@@](C)(OC)[C@@H](O)[C@H](C)O2)[C@H](C)[C@@H](O[C@@H]2O[C@H](C)C[C@H](N(C)C)[C@H]2O)[C@](C)(O)C[C@@H](C)CN(CCCNC(=O)Nc2ccccc2)[C@H](C)[C@@H](O)[C@]1(C)O",
    "experimental target": "Escherichia coli",
    "units": "µg/mL",
    "MIC": 8
  },
  {
    "compound structure": "CC[C@H]1OC(=O)[C@H](C)[C@@H](O[C@H]2C[C@@](C)(OC)[C@@H](O)[C@H](C)O2)[C@H](C)[C@@H](O[C@@H]2O[C@H](C)C[C@H](N(C)C)[C@H]2O)[C@](C)(O)C[C@@H](C)CN(CCCN(CCC#N)C(=O)Nc2ccc3ccccc3c2)[C@H](C)[C@@H](O)[C@]1(C)O",
    "experimental target": "Escherichia coli",
    "units": "µg/mL",
    "MIC": 32
  },
  {
    "compound structure": "CC[C@H]1OC(=O)[C@H](C)[C@@H](O[C@H]2C[C@@](C)(OC)[C@@H](O)[C@H](C)O2)[C@H](C)[C@@H](O[C@@H]2O[C@H](C)C[C@H](N(C)C)[C@H]2O)[C@](C)(O)C[C@@H](C)CN(CCCNC(=S)NCCCc2ccccc2)[C@H](C)[C@@H](O)[C@]1(C)O",
    "experimental target": "Escherichia coli",
    "units": "µg/mL",
    "MIC": 16
  }
]

query: Name the recorded MIC for CC[C@H]1OC(=O)[C@H](C)[C@@H](O[C@H]2C[C@@](C)(OC)[C@@H](O)[C@H](C)O2)[C@H](C)[C@@H](O[C@@H]2O[C@H](C)C[C@H](N(C)C)[C@H]2O)[C@](C)(O)C[C@@H](C)CN(CCCNC(=O)Nc2cccc3ccccc23)[C@H](C)[C@@H](O)[C@]1(C)O .
result: 8

Where do these numbers come from? They come from ChEMBL document CHEMBL1153576.
